Source: patent US20220064329A1

Study Target: T1, recombinant human activated Factor VII (FVIIa) (human, UniProt P08709 61-212; P08709 213-466, ten glutamate residues of the Gla domain may be gamma-carboxylated)
T1 construct: chains tethered by a disulfide bond; also called Factor VIIa; rFVIIa
T1 sequence 1: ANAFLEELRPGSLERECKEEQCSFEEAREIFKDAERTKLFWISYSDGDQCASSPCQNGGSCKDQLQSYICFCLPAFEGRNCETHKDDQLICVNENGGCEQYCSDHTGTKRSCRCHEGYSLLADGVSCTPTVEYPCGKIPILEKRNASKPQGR
T1 sequence 2: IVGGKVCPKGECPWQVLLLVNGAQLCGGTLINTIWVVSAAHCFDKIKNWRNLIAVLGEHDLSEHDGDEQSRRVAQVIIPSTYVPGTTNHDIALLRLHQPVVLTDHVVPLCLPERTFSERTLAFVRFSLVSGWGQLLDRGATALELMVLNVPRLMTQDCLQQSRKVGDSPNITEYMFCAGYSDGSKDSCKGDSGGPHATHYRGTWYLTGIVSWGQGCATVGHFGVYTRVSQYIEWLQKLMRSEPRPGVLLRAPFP
Assay Info: BLI (Fortebio)
Endpoint Label: pKd
Convention used: pKd is expressed as -log10 of the molar concentration.

Use the examples below as a reference point.
VH SEQ ID NO 634 / VL SEQ ID NO 318 (antibody, IgG4, V domains shown, humanized 11F2; IgG4 S228P/kappa) VH: QVQLQESGPGLVKPSQTLSLTCTVSGYSISSDSAWSWIRQPPGKGLEWIGYIQYSGSTNYNPSLKSRVTISRDTSKNQFSLKLSSVTAADTAVYYCARSVNYYGNSFAVGYWGQGTLVTVSS VL: EIVLTQSPATLSLSPGERATLSCRASQGISDYLHWYQQKPGEAPRLLIKYTSQPATGIPARFSGSGSGTDFTLTISSLEPEDFAVYYCQNGHSFPLTFGQGTKLEIK :: 9.07
VH SEQ ID NO 618 / VL SEQ ID NO 334 (antibody, IgG4, V domains shown, humanized 11F2; IgG4 S228P/kappa) VH: QVQLQESGPGLVKPSQTLSLTCTVSGYSISSDSAWSWIRQFPGKGLEWIGYIQYSGSTNYNPSLKSRVTISRDTSKNQFSLKLSSVTAADTAVYYCARSVNYYGNSFAVGPWGQGTLVTVSS VL: EIVLTQSPATLSLSPGERATLSCRASQGISDYLHWYQQKPGQAPRLLIKYASQPATGIPARFSGSGSGTDFTLTISSLEPEDFAVYYCQNGHSFPLTFGQGTKLEIK :: 8.89

Attention now shifts to the item below.
Sample VH SEQ ID NO 650 / VL SEQ ID NO 310 (antibody, IgG4, V domains shown, humanized 11F2; IgG4 S228P/kappa) VH: QVQLQESGPGLVKPSQTLSLTCTVSGYSISSDSAWSWIRQPPGKKLEWIGYIQYSGSTNYNPSLKSRVTISRDTSKNQFSLKLSSVTAADTAVYYCARSVNYYGNSFAVGPWGQGTLVTVSS VL: EIVLTQSPATLSLSPGERATLSCRASQGISDYLAWYQQKPGQAPRLLIKYASQPATGIPARFSGSGSGTDFTLTISSLEPEDFAVYYCQNGHSFPLTFGQGTKLEIK ; pKd observed: 7.80
